Biological target: T1, hDMX_(1-200) (human, UniProt O15151 1-200)
T1 sequence (looked up): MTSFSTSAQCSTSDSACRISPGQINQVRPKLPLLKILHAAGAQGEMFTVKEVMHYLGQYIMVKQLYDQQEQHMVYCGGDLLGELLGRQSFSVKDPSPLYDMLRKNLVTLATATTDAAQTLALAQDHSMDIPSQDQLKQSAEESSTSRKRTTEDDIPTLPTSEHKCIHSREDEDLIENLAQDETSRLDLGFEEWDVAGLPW
Assay: fluorescence polarisation
pKd: −log10 of the molar value. Ends that are not written are not given here.
quantity measured: pKd

a = MRPFMDYWEGLN (also: fluorescent label (flu), position not given here) [p53 12/1^flu]
b = SQETFSDLWKLLPENNV (peptide, UniProt P04637 15-31, looked up, also: fluorescent label (flu), position not given here) [p53AD15−31^flu]
query: Short answer wanted: higher pKd, a or b ? Respond with the label that goes with your answer.
result: a

Entry source: paper PMC2926950
